experiment: Therapeutic index, ratio of TD50 for HFF cells to IC50 for Toxoplasma gondii F2; assay type: cell-based; conditions: human, read-out: TI
Can you tell me selectivity ratio for the items I'm about to list?
Response field accepts a number only; no unit should be typed.

Q: Supply recorded selectivity ratio for CC1=C(c2ncc(C)s2)O[C@@H]2O[C@@]3(C)CC[C@H]4[C@H](C)CC[C@@H]1[C@@]24OO3 here.
Result: 1520

Q: Supply recorded selectivity ratio for CC1=C(c2nc(-c3ccc(S(C)(=O)=O)cc3)cs2)O[C@@H]2O[C@@]3(C)CC[C@H]4[C@H](C)CC[C@@H]1[C@@]24OO3 here.
Result: 1340

Q: Supply recorded selectivity ratio for COc1cc(Cc2cnc(N)nc2N)cc(OC)c1OC [TRIMETHOPRIM] here.
Result: 12

Q: Supply recorded selectivity ratio for CCNC(=O)C1=C(C)[C@@H]2CC[C@@H](C)[C@@H]3CC[C@@]4(C)OO[C@@]23[C@H](O1)O4 here.
Result: 38
